Values from patent US20260083865A1

# experimentalSystem: PSMA-expressing C4-2 cells (Homo sapiens, UniProt Q04609)
# Construct: PSMA-expressing C4-2 cells (ATCC, Cat. No. CRL-3314) were cultured in RPMI-1640; host or cells: C4-2 cells
# Sequence (Q04609 whole entry): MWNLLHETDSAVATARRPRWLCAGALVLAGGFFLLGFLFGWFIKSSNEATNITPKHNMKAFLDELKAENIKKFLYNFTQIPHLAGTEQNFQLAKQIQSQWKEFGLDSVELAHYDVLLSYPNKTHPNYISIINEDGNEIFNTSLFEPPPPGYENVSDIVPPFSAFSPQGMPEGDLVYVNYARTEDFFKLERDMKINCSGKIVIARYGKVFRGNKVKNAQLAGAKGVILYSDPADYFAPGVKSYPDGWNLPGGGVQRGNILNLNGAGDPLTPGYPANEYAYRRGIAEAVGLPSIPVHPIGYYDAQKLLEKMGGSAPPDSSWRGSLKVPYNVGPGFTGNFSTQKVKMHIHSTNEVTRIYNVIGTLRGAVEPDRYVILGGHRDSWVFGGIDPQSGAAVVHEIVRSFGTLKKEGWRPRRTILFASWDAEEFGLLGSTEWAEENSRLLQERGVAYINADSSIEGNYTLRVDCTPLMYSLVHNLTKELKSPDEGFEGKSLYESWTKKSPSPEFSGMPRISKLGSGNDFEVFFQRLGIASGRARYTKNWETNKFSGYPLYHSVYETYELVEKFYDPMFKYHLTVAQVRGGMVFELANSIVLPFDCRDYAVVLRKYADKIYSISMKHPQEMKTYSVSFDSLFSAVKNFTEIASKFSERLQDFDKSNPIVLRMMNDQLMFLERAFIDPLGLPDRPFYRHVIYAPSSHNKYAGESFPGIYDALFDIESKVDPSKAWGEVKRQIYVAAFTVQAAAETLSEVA
# methodSummary: FACS binding assay (competition with 50 nM PSM-0183)
# details: pIC50 category of FACS binding, C4-2 cells; read-out: pIC50 [C4-2] CAT (converted)
# Protocol: In order to determine binding of compounds according to the present invention to PSMA-expressing cells, a FACS binding assay was established. PSMA-expressing C4-2 cells (ATCC, Cat. No. CRL-3314) were cultured in RPMI-1640 (Pan Biotech, Cat. No. P04-18050) including 10% fetal calf serum (Biochrom) and 100 U/ml penicillin and 100 μg/mL streptomycin (Sigma, Cat. No. P0781). […]
Numbered stars: 1 amine (or outer) side, 2 acyl side, 3 side chain; on linkers, the order of the positions; unused ones are H or OH. Bridge positions count the residues as written; N and C are the ends. Square brackets hold non-standard residues; d marks the D form. Peptide text beside a SMILES is read from it. * marks the point of attachment. DOTA = O=C(O)CN1CCN(CC(=O)O)CCN(CC(=O)*)CCN(CC(=O)O)CC1; Phe(4-Cl) = N[C@@H](Cc1ccc(Cl)cc1)C(=O)O; X1 = O=C(CC1CCN([*:1])CC1)[*:2]; Tle = CC(C)(C)[C@H](N)C(=O)O; Nle = CCCC[C@H](N)C(=O)O; NHCH2CH2NHMe = CNCCN*; Aib = CC(C)(N)C(=O)O
Measured IC50 by item

• CCCC[C@H](NC(=O)[C@@H]1CSSC[C@H](NC(=O)[C@H](Cc2ccccc2)NC(=O)[C@H](C)NC(=O)[C@@H](NC(C)=O)[C@@H](C)O)C(=O)N[C@@H](CCCCN)C(=O)N[C@@H](CCCNC(=N)N)C(=O)N2CCC[C@H]2C(=O)N[C@@H](CC(N)=O)C(=O)N1)C(=O)N[C@H](C(=O)N[C@@H](CC(=O)O)C(N)=O)[C@@H](C)O [PSM-0460] (Ac-TAFCKRPNC[Nle]TD-NH2; disulfide 4-9) = < 200 nM

-- ask Entry CNCCNC(=O)[C@@H](NC(=O)[C@@H]1CSSC[C@H](NC(=O)[C@H](Cc2ccc(Cl)cc2)NC(=O)C(C)(C)NC(=O)[C@@H](NC(=O)CC2CCN(C(=O)CN3CCN(CC(=O)O)CCN(CC(=O)O)CCN(CC(=O)O)CC3)CC2)[C@@H](C)O)C(=O)N[C@@H](CCCCN)C(=O)N[C@@H](CCCNC(=N)N)C(=O)NC(C)(C)C(=O)N[C@@H](CC(N)=O)C(=O)N1)C(C)(C)C [PSM-0456] ({DOTA}-[X1]T[Aib][Phe(4-Cl)]CKR[Aib]NC[Tle]-NHCH2CH2NHMe; disulfide 5-10) has what IC50?
-- reply < 200 nM

-- ask Here is the next molecule: CC(=O)N[C@H](C(=O)NC(C)(C)C(=O)N[C@@H](Cc1ccccc1)C(=O)N[C@H]1CSSC[C@@H](C(=O)N[C@H](C(=O)N[C@H](C(N)=O)[C@@H](C)O)C(C)(C)C)NC(=O)[C@H](CC(=O)O)NC(=O)C(C)(C)NC(=O)[C@H](CCCNC(=N)N)NC(=O)[C@H](CCCCN)NC1=O)[C@@H](C)O [PSM-0478] (Ac-T[Aib]FCKR[Aib]DC[Tle]T-NH2; disulfide 4-9)
-- reply < 200 nM

====

# Test system: PC3-PIP tumor model
# Set-up: species or system mice
# details: mouse, in vivo
Numbered stars: 1 amine (or outer) side, 2 acyl side, 3 side chain; on linkers, the order of the positions; unused ones are H or OH. Bridge positions count the residues as written; N and C are the ends. Square brackets hold non-standard residues; d marks the D form. Peptide text beside a SMILES is read from it. * marks the point of attachment. DOTA = O=C(O)CN1CCN(CC(=O)O)CCN(CC(=O)*)CCN(CC(=O)O)CC1; Phe(4-Cl) = N[C@@H](Cc1ccc(Cl)cc1)C(=O)O; Arg(Me) = CNC(=N)NCCC[C@H](N)C(=O)O; X1 = O=C(CC1CCN([*:1])CC1)[*:2]; Lys(Me) = CNCCCC[C@H](N)C(=O)O; Tle = CC(C)(C)[C@H](N)C(=O)O; Aib = CC(C)(N)C(=O)O
measurementName: Tumor AUC (% ID/g*h)
I only need the number, in % ID/g*h, no unit after it.

-- ask Given the entry CNCCCC[C@@H]1NC(=O)[C@@H](NC(=O)[C@H](Cc2ccc(Cl)cc2)NC(=O)C(C)(C)NC(=O)[C@@H](NC(=O)CC2CCN(C(=O)CN3CCN(CC(=O)O)CCN(CC(=O)O)CCN(CC(=O)O)CC3)CC2)[C@@H](C)O)CSSC[C@@H](C(=O)N[C@H](C(=O)N[C@H](C(N)=O)[C@@H](C)O)C(C)(C)C)NC(=O)[C@H](CC(N)=O)NC(=O)C(C)(C)NC(=O)[C@H](CCCNC(=N)NC)NC1=O [PSM-0194] ({DOTA}-[X1]T[Aib][Phe(4-Cl)]C[Lys(Me)][Arg(Me)][Aib]NC[Tle]T-NH2; disulfide 5-10) , what Tumor AUC was observed with PC3-PIP tumor model?
-- reply 180

====

Entries annotated with measured Kd
# experimentalSystem: Fc-fusion protein of human PSMA (hPSMA-Fc) (Homo sapiens)
# Construct: purchased Acro Biosystems PSA-H5264
# Sequence (Q04609 44-750 limits assumed): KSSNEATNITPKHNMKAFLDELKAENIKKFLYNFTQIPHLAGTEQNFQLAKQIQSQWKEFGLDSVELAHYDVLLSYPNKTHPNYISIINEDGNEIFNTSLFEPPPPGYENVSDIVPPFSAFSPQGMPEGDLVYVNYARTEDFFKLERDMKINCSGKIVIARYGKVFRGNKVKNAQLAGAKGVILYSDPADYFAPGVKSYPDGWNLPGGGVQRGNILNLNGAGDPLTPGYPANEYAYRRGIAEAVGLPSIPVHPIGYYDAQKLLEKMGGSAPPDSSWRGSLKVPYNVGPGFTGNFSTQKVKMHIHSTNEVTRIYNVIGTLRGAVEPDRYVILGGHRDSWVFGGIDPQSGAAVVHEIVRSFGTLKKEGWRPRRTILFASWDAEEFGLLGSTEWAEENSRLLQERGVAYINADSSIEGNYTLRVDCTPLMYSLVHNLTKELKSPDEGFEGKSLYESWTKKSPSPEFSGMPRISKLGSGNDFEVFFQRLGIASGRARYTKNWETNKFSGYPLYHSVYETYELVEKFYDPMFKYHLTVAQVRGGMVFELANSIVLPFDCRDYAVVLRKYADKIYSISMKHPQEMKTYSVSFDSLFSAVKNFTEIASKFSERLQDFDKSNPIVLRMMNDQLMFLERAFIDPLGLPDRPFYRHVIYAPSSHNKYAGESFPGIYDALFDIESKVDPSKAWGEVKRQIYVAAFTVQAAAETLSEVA
# methodSummary: Surface plasmon resonance assay (Biacore T200, single cycle kinetic)
# Format: binding
# details: pKD category for PSMA SPR activity assay, hPSMA-Fc, 25° C.; read-out: pKD CAT (converted)
Numbered stars: 1 amine (or outer) side, 2 acyl side, 3 side chain; on linkers, the order of the positions; unused ones are H or OH. Bridge positions count the residues as written; N and C are the ends. Square brackets hold non-standard residues; d marks the D form. Peptide text beside a SMILES is read from it. * marks the point of attachment. DOTA = O=C(O)CN1CCN(CC(=O)O)CCN(CC(=O)*)CCN(CC(=O)O)CC1; Phe(3-CN) = N#Cc1cccc(C[C@H](N)C(=O)O)c1; Phe(4-Cl) = N[C@@H](Cc1ccc(Cl)cc1)C(=O)O; Arg(Me) = CNC(=N)NCCC[C@H](N)C(=O)O; X1 = O=C(CC1CCN([*:1])CC1)[*:2]; Lys(Me) = CNCCCC[C@H](N)C(=O)O; Tle = CC(C)(C)[C@H](N)C(=O)O; 4Amb = NCc1ccc(C(=O)O)cc1; Aib = CC(C)(N)C(=O)O; Ahx = NCCCCCC(=O)O; βAla = NCCC(=O)O

• C[C@@H](O)[C@H](NC(=O)[C@@H](NC(=O)[C@@H]1CSSC[C@H](NC(=O)[C@H](Cc2ccccc2)NC(=O)C(C)(C)NC(=O)CCCCCNC(=O)CN2CCN(CC(=O)O)CCN(CC(=O)O)CCN(CC(=O)O)CC2)C(=O)N[C@@H](CCCCN)C(=O)N[C@@H](CCCNC(=N)N)C(=O)NC(C)(C)C(=O)N[C@@H](CC(N)=O)C(=O)N1)C(C)(C)C)C(N)=O [PSM-0513] ({DOTA-Ahx}-[Aib]FCKR[Aib]NC[Tle]T-NH2; disulfide 3-8) = < 12.6 nM
• CNCCCC[C@@H]1NC(=O)[C@@H](NC(=O)[C@H](Cc2cccc(C#N)c2)NC(=O)C(C)(C)NC(=O)[C@@H](NC(=O)CC2CCN(C(=O)CN3CCN(CC(=O)O)CCN(CC(=O)O)CCN(CC(=O)O)CC3)CC2)[C@@H](C)O)CSSC[C@@H](C(=O)N[C@H](C(N)=O)C(C)(C)C)NC(=O)[C@H](CC(N)=O)NC(=O)C(C)(C)NC(=O)[C@H](CCCNC(=N)NC)NC1=O [PSM-0459] ({DOTA}-[X1]T[Aib][Phe(3-CN)]C[Lys(Me)][Arg(Me)][Aib]NC[Tle]-NH2; disulfide 5-10) = 12.6 to 126 nM
• CCCC[C@H](NC(=O)[C@@H]1CSSC[C@H](NC(=O)[C@H](Cc2ccccc2)NC(=O)[C@H](C)NC(=O)[C@@H](NC(C)=O)[C@@H](C)O)C(=O)N[C@@H](CCCCN)C(=O)N[C@@H](CCCNC(=N)N)C(=O)N[C@H](C)C(=O)N[C@@H](CC(N)=O)C(=O)N1)C(=O)N[C@H](C(=O)N[C@@H](CC(=O)O)C(N)=O)[C@@H](C)O = > 501 nM
• CC(C)(NC(=O)c1ccc(CNC(=O)CN2CCN(CC(=O)O)CCN(CC(=O)O)CCN(CC(=O)O)CC2)cc1)C(=O)N[C@@H](Cc1ccc(Cl)cc1)C(=O)N[C@H]1CSSC[C@@H](C(=O)N[C@H](C(=O)NCCC(N)=O)C(C)(C)C)NC(=O)[C@H](CC(N)=O)NC(=O)C(C)(C)NC(=O)[C@H](CCCNC(=N)N)NC(=O)[C@H](CCCCN)NC1=O [PSM-0432] ({DOTA-4Amb}-[Aib][Phe(4-Cl)]CKR[Aib]NC[Tle][βAla]-NH2; disulfide 3-8) = < 12.6 nM

Now, please, on to the next compound.
-- ask What Kd value was documented for this compound, CC(=O)N[C@H](C(=O)NC(C)(C)C(=O)N[C@@H](Cc1ccccc1)C(=O)N[C@H]1CSSC[C@@H](C(=O)N[C@H](C(=O)N[C@H](C(N)=O)[C@@H](C)O)C(C)(C)C)NC(=O)[C@H](CC(C)C)NC(=O)C(C)(C)NC(=O)[C@H](CCCNC(=N)N)NC(=O)[C@H](CCCCN)NC1=O)[C@@H](C)O [PSM-0545] (Ac-T[Aib]FCKR[Aib]LC[Tle]T-NH2; disulfide 4-9) ?
-- reply < 12.6 nM
